Recorded values, source the supplement of paper PMC10567573.

B1: ZC3H15 (parent)
chain: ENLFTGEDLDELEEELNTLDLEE

Variants of: B1
Experiment: protein stability index of a GFP-peptide fusion (GPS, HEK-293T) (PSI 1-6); higher = more stable;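 further: lentivirally expressed fusions sorted by FACS into six bins by GFP to DsRed ratio, PSI derived from sequencing read proportions per bin multiplied by bin number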
Details: c terminus: native
protein stability index values by entry
Reply: number alone, nothing else.

Study these solved cases before continuing.
>  <Mutation list>
G6D

>  <Assay endpoint>
protein stability index

>  <Result>
4.93

$$$$
>  <Mutation list>
E11R

>  <Assay endpoint>
protein stability index

>  <Result>
4.98

$$$$
>  <Mutation list>
L19S

>  <Assay endpoint>
protein stability index

>  <Result>
4.91

$$$$
>  <Mutation list>
F4D

>  <Assay endpoint>
protein stability index

>  <Result>
5.08

$$$$
>  <Mutation list>
D8R

>  <Assay endpoint>
protein stability index

>  <Result>
5.05

$$$$
>  <Mutation list>
E13N

>  <Assay endpoint>
protein stability index

>  <Result>
5.1

$$$$

Next variant, please.
Dear colleague, I am looking for the recorded protein stability index of the following variant: `F4S`
5.13
